# Method: Plasma pharmacokinetics after 2-hour IV infusion (LC-MS/MS)
# Study Conditions: read-out: AUC(tf) Mean; Day 15, 7.11 mg/m^2, N 7
Readout Label: AUC(0-t)
Your answer should be a number followed by the unit of measure.

Exercise: Recorded AUC(0-t) for CCc1cnn2c(NCc3ccc[n+]([O-])c3)cc(N3CCCC[C@H]3CCO)nc12 , please?
Solution: 710 ng·h/mL

* * *

# Method: clinical
# Study Conditions: human, plasma, intravenous, 14 mg/m2
Readout Label: half-life (h)
Please give a number only; it is taken to be in h.

Exercise: Recorded half-life for CCc1cnn2c(NCc3ccc[n+]([O-])c3)cc(N3CCCC[C@H]3CCO)nc12 [dinaciclib] , please?
Solution: 3.09

* * *

# Method: clinical
# Study Conditions: human, plasma, intravenous, 12 mg/m2
Readout Label: half-life (h)
Please give a number only; it is taken to be in h.

Exercise: Recorded half-life for CCc1cnn2c(NCc3ccc[n+]([O-])c3)cc(N3CCCC[C@H]3CCO)nc12 , please?
Solution: 3.28

* * *

# Method: Plasma pharmacokinetics after 2-hour IV infusion (LC-MS/MS)
# Study Conditions: read-out: AUC(I) Mean; Day 15, 12 mg/m^2, N 10
Readout Label: AUC(0-inf) (ng·h/mL)
Please give a number only; it is taken to be in ng·h/mL.

Exercise: Recorded AUC(0-inf) for CCc1cnn2c(NCc3ccc[n+]([O-])c3)cc(N3CCCC[C@H]3CCO)nc12 [dinaciclib] , please?
Solution: 1270

* * *

# Method: clinical
# Study Conditions: human, plasma, intravenous, 7.11 mg/m2
Readout Label: half-life (h)
Please give a number only; it is taken to be in h.

Exercise: Recorded half-life for CCc1cnn2c(NCc3ccc[n+]([O-])c3)cc(N3CCCC[C@H]3CCO)nc12 [dinaciclib] , please?
Solution: 3.04

* * *

# Method: clinical
# Study Conditions: human, plasma, intravenous, 0.33 mg/m2
Readout Label: AUC(0-inf) (ng·h/mL)
Please give a number only; it is taken to be in ng·h/mL.

Exercise: Recorded AUC(0-inf) for CCc1cnn2c(NCc3ccc[n+]([O-])c3)cc(N3CCCC[C@H]3CCO)nc12 [dinaciclib] , please?
Solution: 43

* * *

# Method: Plasma pharmacokinetics after 2-hour IV infusion (LC-MS/MS)
# Study Conditions: read-out: AUC(I) Mean; Day 1, 0.66 mg/m^2, N 1
Readout Label: AUC(0-inf) (ng·h/mL)
Please give a number only; it is taken to be in ng·h/mL.

Exercise: Recorded AUC(0-inf) for CCc1cnn2c(NCc3ccc[n+]([O-])c3)cc(N3CCCC[C@H]3CCO)nc12 , please?
Solution: 35.7

* * *

# Method: clinical
# Study Conditions: human, plasma, intravenous, 12 mg/m2
Readout Label: AUC(0-t) (ng·h/mL)
Please give a number only; it is taken to be in ng·h/mL.

Exercise: Recorded AUC(0-t) for CCc1cnn2c(NCc3ccc[n+]([O-])c3)cc(N3CCCC[C@H]3CCO)nc12 , please?
Solution: 1150

* * *

# Method: Plasma pharmacokinetics after 2-hour IV infusion (LC-MS/MS)
# Study Conditions: read-out: AUC(tf) Mean; Day 15, 0.66 mg/m^2, N 1
Readout Label: AUC(0-t)

Exercise: Recorded AUC(0-t) for CCc1cnn2c(NCc3ccc[n+]([O-])c3)cc(N3CCCC[C@H]3CCO)nc12 [dinaciclib] , please?
Solution: 27.2 ng·h/mL

Measured values drawn from paper PMC3853718 for this set.
